Measured melting point values are reported for all entries that follow.

> print(dat)
                                   compound   test.readout     data.value
1    COc1ccc(C(C)=NNC(=O)c2oc3ccccc3c2C)cc1  melting point         160 °C
2  COc1cccc(NC(=S)NNC(=O)c2oc3ccccc3c2CN2CCOCC2)c1 [Compound 15a]  melting point  190 to 192 °C
3  Cc1c(C(=O)NNC(=S)Nc2cccc(C(F)(F)F)c2)oc2ccccc12  melting point  170 to 172 °C
4  COc1ccc(NC(=S)NNC(=O)c2oc3ccccc3c2CN2CCOCC2)cc1 [Compound 15b]  melting point  198 to 200 °C
5   COc1ccc(NC(=S)NNC(=O)c2oc3ccccc3c2C)cc1  melting point  190 to 193 °C

The reported value for `O=C(NN=C1CCCc2ccccc21)c1oc2ccccc2c1CN1CCOCC1` in terms of melting point is 200 °C

The reported value for `COc1ccc(NC(=O)NNC(=O)c2oc3ccccc3c2C)cc1` in terms of melting point is 236 to 240 °C

The reported value for `COc1cccc(NC(=S)NNC(=O)c2oc3ccccc3c2C)c1` in terms of melting point is 172 to 174 °C

The reported value for `COc1cccc(NC(=O)NNC(=O)c2oc3ccccc3c2C)c1` in terms of melting point is 162 to 164 °C
